tgt: human Y2 receptor (human) (UniProt P49146)
Sequence (P49146 whole entry): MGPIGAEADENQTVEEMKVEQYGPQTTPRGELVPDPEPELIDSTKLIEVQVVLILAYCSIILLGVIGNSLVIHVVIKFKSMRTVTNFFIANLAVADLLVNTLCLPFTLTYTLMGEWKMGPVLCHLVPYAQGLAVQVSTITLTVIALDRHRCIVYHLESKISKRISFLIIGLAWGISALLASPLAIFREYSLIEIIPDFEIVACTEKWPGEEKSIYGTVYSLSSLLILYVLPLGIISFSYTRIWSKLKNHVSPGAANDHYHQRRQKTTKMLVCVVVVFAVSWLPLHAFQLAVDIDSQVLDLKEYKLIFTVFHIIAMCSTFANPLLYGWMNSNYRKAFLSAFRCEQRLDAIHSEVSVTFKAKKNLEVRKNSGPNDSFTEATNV
methodDescription: cell-based or functional assay
Non-standard residues stand in square brackets, D forms with d. *: point of attachment. Cha = N[C@@H](CC1CCCCC1)C(=O)O; Isobutyryl = CC(C)C(=O)*; Abu = CC[C@H](N)C(=O)O; Aib = CC(C)(N)C(=O)O
parameterMeasured: GBA EC50 Ratio (vs PYY(3-36)), [35S]GTPγS

- binder: "Isobutyryl-R[Abu][Cha]SNL[Aib]TRQR[Cha]-NH2 (SMILES CC[C@H](NC(=O)[C@H](CCCNC(=N)N)NC(=O)C(C)C)C(=O)N[C@@H](CC1CCCCC1)C(=O)N[C@@H](CO)C(=O)N[C@@H](CC(N)=O)C(=O)N[C@@H](CC(C)C)C(=O)NC(C)(C)C(=O)N[C@H](C(=O)N[C@@H](CCCNC(=N)N)C(=O)N[C@@H](CCC(N)=O)C(=O)N[C@@H](CCCNC(=N)N)C(=O)N[C@@H](CC1CCCCC1)C(N)=O)[C@@H](C)O) [Isobutanoyl-[Abu26, Cha27,36, Ser28, Aib31]-PYY(25-36)]"
  valueReported: 35
